Test target: factor Xa (Homo sapiens, UniProt P00742)
Construct: Human factors X, Xa, IXa, XIa, and XIIa are purchased; purchased Enzyme Research Laboratories, South Bend, Ind
Sequence (P00742 235-488 limits assumed): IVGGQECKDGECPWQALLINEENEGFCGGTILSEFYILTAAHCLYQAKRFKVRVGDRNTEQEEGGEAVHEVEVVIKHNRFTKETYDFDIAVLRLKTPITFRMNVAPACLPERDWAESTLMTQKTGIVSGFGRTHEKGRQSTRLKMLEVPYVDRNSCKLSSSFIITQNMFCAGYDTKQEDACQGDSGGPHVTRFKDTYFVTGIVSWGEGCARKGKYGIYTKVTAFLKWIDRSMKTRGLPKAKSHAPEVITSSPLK
Sequence (P00742 41-179 partner limits assumed): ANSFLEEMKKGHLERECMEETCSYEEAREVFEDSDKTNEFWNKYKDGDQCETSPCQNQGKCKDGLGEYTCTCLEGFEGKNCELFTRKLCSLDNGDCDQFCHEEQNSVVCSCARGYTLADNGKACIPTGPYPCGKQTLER
Test details: Kass, factor Xa chromogenic substrate assay
Assay type: biochemical
Run conditions: substrate N-Benzoyl-Ile-Glu-Gly-Arg-p-nitroanilide
Where a name gives a salt, the structure may show the parent alone.
Quantity name: Kass × 10^6 (L/mole) Xa

Example molecules with recorded Kass × 10^6 (L/mole) Xa:
CCS(=O)(=O)N[C@H](Cc1ccccc1)C(=O)N1CCC[C@H]1C(=O)NCc1cccc(NC(=N)N)c1 ... < 0.001 × 10^6 L/mole
Cl.N=C(N)c1ccc(CNC(=O)[C@@H]2CCCN2C(=O)[C@@H](CC2CCCCC2)NCCC(=O)O)cc1 ... 0.46 × 10^6 L/mole
N=C(N)NCCCNC(=O)[C@@H]1CCCN1C(=O)[C@H](N)Cc1ccccc1 [Example 7, D-Phe-Pro-NH(CH2)3 NHC(NH)NH2.HCl] ... 0.0041 × 10^6 L/mole
N=C(N)c1ccc(CCNC(=O)[C@@H]2CCCN2C(=O)[C@@H]2NCC[C@@H]3CCCC[C@@H]32)cc1 ... 0.01 × 10^6 L/mole
Cl.N=C(N)c1ccc(CCCNC(=O)C2CCCN2C(=O)C2NCCC3CCCCC32)cc1 (centres unmarked) ... 0.03 × 10^6 L/mole
Cl.Cl.Cl.N=C(N)c1ccc(CNC(=O)[C@@H]2C[C@@H]3CCCC[C@@H]3N2C(=O)[C@H]2CCCCN2)cc1 (relative stereo) [Example 20, D-hPro-Ohi-p-NHCH2 C6 H4 C(NH)NH2.3HCl] ... 0.10 × 10^6 L/mole

I'm hoping you can list Kass × 10^6 (L/mole) Xa for every molecule here, please.
1. Cl.O=C(O)CN[C@H](CC1CCCCC1)C(=O)N1CCC[C@H]1C(=O)NCCC1=CCNCC1
2. O=C(O)CN[C@H](CC1CCCCC1)C(=O)N1CCC[C@H]1C(=O)NCCCC1CCNCC1

Output:
1: < 0.001 × 10^6 L/mole; 2: < 0.001 × 10^6 L/mole

* * *

Tested on: Human Plasma
Test details: Human plasma anticoagulation, activated partial thromboplastin time (APTT)
Assay type: biochemical
Run conditions: concentration required to double the clotting time
Counter-ions that a name gives are not always drawn.
Quantity name: Human Plasma Anticoagulation 2x Clotting time APTT

N=C(N)c1cccc(CCCNC(=O)[C@@H]2CCCN2C(=O)[C@@H]2NCC[C@@H]3CCCC[C@@H]32)c1 ... 59,300 ng/mL
N=C(N)c1cccc(CNC(=O)[C@@H]2CCCN2C(=O)[C@@H]2NCC[C@@H]3CCCC[C@@H]32)c1 [Example 25, D-1-Piq-Pro-m-NHCH2 -C6 H4 C(=NH)NH2.HCl] ... 34,600 ng/mL
Cl.N=C(N)c1ccc(CNC(=O)CN(CCc2ccccc2)C(=O)CNCC(=O)O)cc1 ... 51,000 ng/mL

I'm hoping you can list Human Plasma Anticoagulation 2x Clotting time APTT for every compound here, please.
1. N=C(N)Nc1ccc(CCNC(=O)[C@@H]2CCCN2C(=O)[C@@H]2NCC[C@@H]3CCCC[C@@H]32)cc1
2. N=C(N)c1ccc(CNC(=O)[C@@H]2C[C@@H]3CCCC[C@@H]3N2C(=O)[C@H]2C[C@H]3CCCC[C@H]3CN2)cc1 (relative stereo)
3. CCS(=O)(=O)N[C@H](CC1CCCCC1)C(=O)N1CCC[C@H]1C(=O)NCc1ccc(N)cc1F.Cl

Output:
69,200 ng/mL
1,100 ng/mL
3,800 ng/mL

Data point: N=C(N)Nc1cccc(CNC(=O)[C@@H]2CCCN2C(=O)[C@@H]2NCC[C@@H]3CCCC[C@@H]32)c1 ; Human Plasma Anticoagulation 2x Clotting time APTT = > 91,000 ng/mL

* * *

Test target: Human Thrombin (Homo sapiens, UniProt P00734)
Test details: Inhibition of the amidase activity of thrombin (Kass)
Type: biochemical
Run conditions: chromogenic substrate N-benzoyl-Phe-Val-Arg-p-nitroanilide; mean over range of concentrations
Provide the recorded Kass × 10^6 (L/mole) Human Thrombin for the entries that follow.

Example compounds with recorded Kass × 10^6 (L/mole) Human Thrombin:
N=C(N)c1cccc(CCCNC(=O)[C@@H]2CCCN2C(=O)[C@@H]2NCC[C@@H]3CCCC[C@@H]32)c1 ... 0.04 × 10^6 L/mole
N=C(N)c1ccc(CNC(=O)[C@@H]2CCCN2C(=O)[C@@H](CC2CCCCC2)NCCCC(=O)O)cc1 ... 265 × 10^6 L/mole

I'm hoping you can list Kass × 10^6 (L/mole) Human Thrombin for every compound here, please.
1. N=C(N)C1CCC(CNC(=O)[C@@H]2CCCN2C(=O)[C@@H](CC2CCCCC2)NCC(=O)O)NC1 (some centres unmarked)
2. Nc1ccc(CNC(=O)[C@@H]2CCCN2C(=O)[C@@H](CC2CCCCC2)NCC(=O)O)cc1F
3. N=C(N)Nc1cccc(CNC(=O)[C@@H]2CCCN2C(=O)[C@@H]2NCC[C@@H]3CCCC[C@@H]32)c1

Output:
11 × 10^6 L/mole
11 × 10^6 L/mole
0.03 × 10^6 L/mole

* * *

Test target: Bovine trypsin (Bos taurus)
Construct: Bovine trypsin is purchased from Worthington Biochemicals; purchased Worthington Biochemicals, Freehold, N.J
Sequence (P00760 24-246): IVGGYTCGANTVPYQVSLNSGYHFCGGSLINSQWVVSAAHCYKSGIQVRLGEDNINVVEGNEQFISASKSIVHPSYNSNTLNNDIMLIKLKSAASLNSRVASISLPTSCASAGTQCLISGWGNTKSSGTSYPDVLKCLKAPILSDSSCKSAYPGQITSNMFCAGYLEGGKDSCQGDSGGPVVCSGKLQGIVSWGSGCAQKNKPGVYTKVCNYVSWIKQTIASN
Test details: Kass, trypsin chromogenic substrate assay
Type: biochemical
Run conditions: substrate N-Benzoyl-Phe-Val-Arg-p-nitroanilide
Provide the recorded Kass × 10^6 (L/mole) Trypsin for the entries that follow.

Example compounds with recorded Kass × 10^6 (L/mole) Trypsin:
Cl.N=C(N)c1ccc(CNC(=O)[C@@H]2CCCN2C(=O)[C@@H](CC2CCCCC2)NCC(=O)O)nn1 ... 3.7 × 10^6 L/mole
N=C(N)Nc1ccc(CCNC(=O)[C@@H]2CCCN2C(=O)[C@@H]2NCC[C@@H]3CCCC[C@@H]32)cc1 ... < 0.02 × 10^6 L/mole
CCS(=O)(=O)N[C@H](CC1CCCCC1)C(=O)N1CCC[C@H]1C(=O)NCc1ccnc(N)c1.Cl ... 0.03 × 10^6 L/mole
N=C(N)c1ccc(CNC(=O)[C@@H]2C[C@H](Oc3ccccc3)CN2C(=O)[C@H]2CCCCN2)cc1 (relative stereo) ... 8.5 × 10^6 L/mole
Cl.N=C(N)c1ccc(CNC(=O)[C@@H]2CCCN2C(=O)[C@@H](CC2CCCCC2)NCCC(=O)O)cc1 ... 47. × 10^6 L/mole
Cl.Nc1ccc(CCNC(=O)[C@@H]2CCCN2C(=O)[C@H](N)Cc2ccccc2)cc1 [Example 14, D-Phe-Pro-P-NHCH2 CH2 C6 H4 NH2.HCl] ... 0.000056 × 10^6 L/mole
Cl.NC[C@H]1CC[C@H](CNC(=O)[C@@H]2CCCN2C(=O)[C@H](N)Cc2ccccc2)CC1 (relative stereo) ... 0.0022 × 10^6 L/mole
Cl.O=C(O)CNC(CC1CCCCC1)C(=O)N1CCCC1C(=O)NCCC1CCNCC1 (stereo not shown) ... 0.52 × 10^6 L/mole

I'm hoping you can list Kass × 10^6 (L/mole) Trypsin for every compound here, please.
1. Cl.N=C(N)N1CCC(CNC(=O)[C@@H]2CCCN2C(=O)[C@@H](CC2CCCCC2)NCC(=O)O)CC1
2. N=C(N)c1cccc(CCCNC(=O)[C@@H]2CCCN2C(=O)[C@@H]2NCC[C@@H]3CCCC[C@@H]32)c1
3. N=C(N)c1ccc(CNC(=O)[C@@H]2CCCN2C(=O)[C@@H](CC2CCCCC2)NCC(=O)O)nc1

Output:
1: 3.6 × 10^6 L/mole; 2: 0.02 × 10^6 L/mole; 3: 4.6 × 10^6 L/mole

I'm hoping you can list Kass × 10^6 (L/mole) Trypsin for every compound here, please.
1. Cl.O=C(O)CN[C@H](CC1CCCCC1)C(=O)N1CCC[C@H]1C(=O)NCCC1=CCNCC1
2. Cl.O=C(O)CN[C@H](CC1CCCCC1)C(=O)N1CCC[C@H]1C(=O)NCCCC1=CCNCC1

Output:
0.21 × 10^6 L/mole
0.03 × 10^6 L/mole

* * *

Provide the recorded Kass × 10^6 (L/mole) Trypsin for the entries that follow.
Test target: Bovine trypsin (Bos taurus, UniProt P00760)
Construct: Bovine trypsin is purchased from Worthington Biochemicals; purchased Worthington Biochemicals, Freehold, N.J
Test details: Kass, trypsin chromogenic substrate assay
Format: biochemical
Run conditions: substrate N-Benzoyl-Phe-Val-Arg-p-nitroanilide

N=C(N)Nc1ccc(CNC(=O)[C@@H]2CCCN2C(=O)[C@@H]2NCC[C@@H]3CCCC[C@@H]32)cc1 ... 0.07 × 10^6 L/mole
Cl.NCc1cccc(CNC(=O)[C@@H]2CCCN2C(=O)[C@H](N)Cc2ccccc2)c1 [Example 11, D-Phe-Pro-m-NHCH2 C6 H4 CH2 NH2.HCl] ... 0.0036 × 10^6 L/mole
Cl.Cl.N=C(N)c1ccc(CNC(=O)[C@@H]2CCCN2C(=O)[C@H](N)CC2CCCCC2)cc1 [Example 51, D-Cha-Pro-p-NHCH2 C6 H4 C(NH)NH2.2HCl] ... 27. × 10^6 L/mole
CCS(=O)(=O)N[C@H](Cc1ccccc1)C(=O)N1CCC[C@H]1C(=O)NCCc1cccc(C(=N)N)c1.Cl ... 0.02 × 10^6 L/mole
Cl.N=C(N)c1ccc(CCCNC(=O)C2CCCN2C(=O)C2NCCC3CCCCC32)cc1 (stereo not drawn) ... 0.04 × 10^6 L/mole

Now for a further molecule.
Data point: Cl.N=C(N)N1CC=C(CNC(=O)[C@@H]2CCCN2C(=O)[C@@H](CC2CCCCC2)NCC(=O)O)CC1 ; Kass × 10^6 (L/mole) Trypsin = 9.8 × 10^6 L/mole
